Form field: IC50 (one value per entry).
study-target: UniProtKB P23458
experiment-description: Jak Biochemical HTRF Assay, JAK1
study-conditions: HTRF biochemical assay, GST-tagged catalytic domain; top concentration tested […]; read-out: JAK1 IC50
Field note: include the unit after the figure.

Asked: So what's the measured IC50 for this one? N#CCC1(n2cc(C(N)=O)c(Nc3ccccc3)n2)CCN(C(=O)OCCN2CCOCC2)CC1 [Example 30-41]
Given back: 31 nM

Asked: For COCC(C)OC(=O)N1CCC(CC#N)(n2cc(C(N)=O)c(Nc3ccc(F)cc3)n2)CC1 (stereo not shown) [Example 30-23] , what is its reported IC50?
Given back: 2 nM

***
Asked: What value of IC50 has been recorded for this entry: COc1cccc(S(=O)(=O)N2CCC(CC#N)(n3cc(C(N)=O)c(Nc4ccccc4)n3)CC2)c1 [Example 37-10]
Given back: 0.7 nM

Asked: Recorded IC50 of N#CCC1(n2cc(C(N)=O)c(Nc3ccccc3)n2)CCN(Cc2cccc(F)c2)CC1 [Example 21-18] , please.
Given back: 2 nM

---

study-target: JAK2 (Homo sapiens (Human), UniProt O60674)
Sequence (O60674 849-1124): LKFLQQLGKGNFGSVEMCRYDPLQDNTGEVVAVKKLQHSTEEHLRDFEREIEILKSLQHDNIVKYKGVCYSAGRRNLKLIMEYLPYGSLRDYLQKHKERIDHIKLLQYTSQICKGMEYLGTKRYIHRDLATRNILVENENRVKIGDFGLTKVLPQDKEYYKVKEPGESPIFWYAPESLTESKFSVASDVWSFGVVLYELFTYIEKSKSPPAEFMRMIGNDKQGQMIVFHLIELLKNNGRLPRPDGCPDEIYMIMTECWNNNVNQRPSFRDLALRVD
experiment-description: Jak Biochemical HTRF Assay, JAK2
study-conditions: HTRF biochemical assay, GST-tagged catalytic domain; top concentration tested […]
pIC50 for assorted compounds
Friendly reminder that pIC50 comes from taking -log10 of the concentration in mol/L.

Would you please look over these solved cases?
Asked: Look up pIC50 for this compound: N#CCC1(n2cc(C(N)=O)c(Nc3ccnc(F)c3)n2)CCC(Nc2ccc(Cl)cc2)CC1 (stereo not drawn) [Example 40-61]
Given back: 8.52

Asked: I would be grateful if you could share the reported pIC50 for CC(C)(C)OC(=O)N1CCC(CC#N)(n2cc(C(N)=O)c(Nc3ccc(C#N)nc3)n2)CC1 .
Given back: 8.22

Asked: I would be grateful if you could share the reported pIC50 for CCOC(=O)COC(=O)N1CC(CC#N)(n2cc(C(N)=O)c(Nc3ccccc3)n2)C1 .
Given back: 6.32

Asked: Find the recorded pIC50 belonging to N#CCC1(n2cc(C(N)=O)c(Nc3ccnc(F)c3)n2)CCC(N2CCc3ccccc32)CC1 (stereo not drawn) [Example 40-54] and report it.
Given back: 7.62

Asked: Report pIC50 for Cc1cc(Nc2nn(C3(CC#N)CCN(C(=O)OC(C)(C)C)CC3)cc2C(N)=O)nc(C)n1 please.
Given back: 6.75

Asked: Endpoint output: pIC50 of CC(C)(C)OC(=O)N1CCC(CC#N)(n2cc(C(N)=O)c(Nc3cccc(-c4ccc(F)cc4)c3)n2)CC1 . Value?
Given back: 5.96

Asked: GET /values?readout=pIC50&item= N#CCC1(n2cc(C(N)=O)c(Nc3ccc(F)cc3)n2)CCN(c2cncc(C#N)c2)CC1
Given back: 7.70

Asked: Quick one: pIC50 of CC(C)(C)OC(=O)NC1CCC(CC#N)(n2cc(C(N)=O)c(Nc3ccccc3)n2)CC1 (single isomer, unassigned) ?
Given back: 6.57

Asked: Please report the recorded pIC50 for N#CCC1(n2cc(C(N)=O)c(Nc3ccnc(F)c3)n2)CCN(Cc2ncco2)CC1 .
Given back: 7.14

Asked: Which pIC50 value is on record for N#CCC1(n2cc(C(N)=O)c(Nc3ccccc3)n2)CCN(Cc2ccc3c(c2)OCO3)CC1 ?
Given back: 7.11

More entries:
Asked: # get_value(readout='pIC50', item= N#CCC1(n2cc(C(N)=O)c(Nc3ccc(F)cc3)n2)CCC(Nc2ccccc2)CC1 (stereo not drawn) [Example 40-103] )
Given back: 8.52

Asked: # lookup: pIC50 of CCc1cccc(NC(=O)N2CC(CC#N)(n3cc(C(N)=O)c(Nc4ccccc4)n3)C2)c1
Given back: 6.84

Asked: Returns the measured pIC50 for the input compound. Input: CC(C)(C)OC(=O)N1CC(CC#N)(n2cc(C(N)=O)c(Nc3ccc(S(C)(=O)=O)cc3)n2)C1
Given back: 8.15

Asked: Which pIC50 value is on record for N#CCC1(n2cc(C(N)=O)c(Nc3ccccc3)n2)CCN(C(=O)c2ccc3ccccc3n2)CC1 ?
Given back: 6.78

Asked: Look up pIC50: CC(C)(C)OC(=O)N1CCC(CC#N)(n2cc(C(N)=O)c(Nc3ccccc3)n2)CC1
Given back: 7.57

---

study-target: JAK1 (Homo sapiens (Human), UniProt P23458)
Sequence (P23458 875-1153): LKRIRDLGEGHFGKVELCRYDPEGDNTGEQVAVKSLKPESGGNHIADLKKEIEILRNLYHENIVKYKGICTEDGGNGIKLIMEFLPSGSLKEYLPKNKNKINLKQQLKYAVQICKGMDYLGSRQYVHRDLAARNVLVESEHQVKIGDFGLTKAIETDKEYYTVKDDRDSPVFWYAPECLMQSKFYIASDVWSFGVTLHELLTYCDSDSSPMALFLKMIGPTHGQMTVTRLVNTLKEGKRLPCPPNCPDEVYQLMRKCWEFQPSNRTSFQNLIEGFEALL
experiment-description: Jak Biochemical HTRF Assay, JAK1
study-conditions: HTRF biochemical assay, GST-tagged catalytic domain; top concentration tested […]; read-out: JAK1 IC50
Property: IC50; scope: individual molecules
Field format: number, assumed nM, no unit text.

Asked: Given the entry Cc1cncc(Nc2nn(C3(CC#N)CCN(C(=O)OC(C)(C)C)CC3)cc2C(N)=O)n1 , report its measured IC50.
Given back: 9

Asked: # input molecule: CS(=O)(=O)c1ccc(Nc2nn(C3(CC#N)CCCCC3)cc2C(N)=O)cc1 ; wanted: its IC50
Given back: 20

Further cases:
Asked: GET /values?readout=IC50&item= CN1CCC(COC(=O)N2CC(CC#N)(n3cc(C(N)=O)c(Nc4ccccc4)n3)C2)CC1
Given back: 130

Asked: Could you share which IC50 value was measured for CC(C)(C)OC(=O)N1CC[C@](CC#N)(n2cc(C(N)=O)c(Nc3ccc(F)cc3)n2)[C@H](F)C1 (racemic) ?
Given back: 0.05

---

study-target: JAK2 (Homo sapiens (Human), UniProt O60674)
experiment-description: Jak Biochemical HTRF Assay, JAK2
study-conditions: HTRF biochemical assay, GST-tagged catalytic domain; top concentration tested […]
reported-metric: pIC50
// pIC50 here means minus log10 of the molar concentration (mol/L)

See these solved cases before continuing.
Asked: Requested field: pIC50. Item: C[C@H]1CN(C(=O)OC(C)(C)C)CC[C@]1(CC#N)n1cc(C(N)=O)c(Nc2ccccc2)n1 (single isomer, unassigned) [Example 48-2]
Given back: 6.31

Asked: I'd like to know its pIC50. The compound in question is N#CCC1(n2cc(C(N)=O)c(Nc3ccnc(F)c3)n2)CCC(NCC(F)(F)F)CC1 (stereo not shown) [Example 40-95]
Given back: 6.10

Asked: Record request: pIC50 value, item N#CCC1(n2cc(C(N)=O)c(Nc3ccnc(F)c3)n2)CCC(NCc2ccc(F)cc2F)CC1 (stereo not shown) [Example 41-4]
Given back: 8.70

Proceeding to the next compound to report its pIC50.
Asked: Request the reported pIC50 associated with N#CCC1(n2cc(C(N)=O)c(Nc3ccnc(F)c3)n2)CCC(Nc2ccc(F)cc2F)CC1 (stereo not shown) [Example 40-37]
Given back: 6.30

---

study-target: UniProt P23458
experiment-description: Jak Biochemical HTRF Assay, JAK1
study-conditions: HTRF biochemical assay, GST-tagged catalytic domain; top concentration tested […]; read-out: JAK1 IC50
reported-metric: IC50 (nM)
Return type: number; implicit unit nM.

Below are worked cases with known answers.
Asked: Need IC50 of N#CCC1(n2cc(C(N)=O)c(Nc3ccnc(F)c3)n2)CCN(Cc2ccc3[nH]ccc3c2)CC1 [Example 22-20] , thanks.
Given back: 2

Asked: Entry under review: CC(C)(C)OC(=O)N1CCC(CC#N)(n2cc(C(N)=O)c(Nc3ccc(C(C)(C)O)nc3)n2)CC1 [Example 9-6] . Reported IC50?
Given back: 0.8

Asked: Give its IC50 value. Item: CC(C)Oc1cccc(N2CCC(CC#N)(n3cc(C(N)=O)c(Nc4ccc(F)cc4)n3)CC2)n1 [Example 3-15]
Given back: 191

Asked: Name the reported IC50 value associated with the molecule N#CCC1(n2cc(C(N)=O)c(Nc3ccccc3)n2)CN(C(=O)OCc2cccnc2)C1 [Example 30-65]
Given back: 12

Asked: # IC50 lookup, item Cc1ncccc1N1CCC(CC#N)(n2cc(C(N)=O)c(Nc3ccc(F)cc3)n2)CC1 [Example 3-29]
Given back: 9

Continuing:
Asked: Need IC50 of N#CCC1(n2cc(C(N)=O)c(Nc3ccc(F)cc3)n2)CCN(C(=O)OCC2CCC2)CC1 [Example 30-5] , thanks.
Given back: 4

Asked: Look up IC50: COc1cc(Nc2nn(C3(CC#N)CCN(C(=O)OCC(F)F)CC3)cc2C(N)=O)ccn1 [Example 9-39]
Given back: 7

Asked: Given the entry N#CCC1(n2cc(C(N)=O)c(Nc3ccccc3)n2)CCN(C(=O)C2CCCCC2)CC1 [Example 34-13] , report its measured IC50.
Given back: 2

---

Below is a list of entries, each paired with its recorded IC50 value.
study-target: JAK1 (Homo sapiens (Human))
experiment-description: Jak Biochemical HTRF Assay, JAK1
study-conditions: HTRF biochemical assay, GST-tagged catalytic domain; top concentration tested […]; read-out: JAK1 IC50
Expressed in pM, but write only the number.

Answered examples (7):
Asked: Return reported IC50; argument: N#CCC1(n2cc(C(N)=O)c(Nc3ccccc3)n2)CCCCC1
Given back: 10000

Asked: I am curious: what IC50 value has been reported for N#CCC1(n2cc(C(N)=O)c(Nc3ccc(F)cc3)n2)CCN(c2ccc(OC(F)F)nc2)CC1 ?
Given back: 700

Asked: Field request: IC50 | item: N#CCC1(n2cc(C(N)=O)c(Nc3ccccc3)n2)CCN(C(=O)OC2CCOC2)CC1 (centres unmarked)
Given back: 1000

Asked: If you can, please state the reported IC50 value of N#CCC1(n2cc(C(N)=O)c(Nc3ccccc3)n2)CCN(Cc2cccc(O)c2)CC1 .
Given back: 300

Asked: Form field: reported IC50 of N#CCC1(n2cc(C(N)=O)c(Nc3ccnc(F)c3)n2)CCN(C(=O)CCC(F)(F)F)CC1
Given back: 100

Asked: Sample N#CCC1(n2cc(C(N)=O)c(Nc3ccccc3)n2)CCN(C(=O)OCc2cccnc2)CC1 — what was its IC50?
Given back: 2000

Asked: # IC50 lookup, item N#CCC1(n2cc(C(N)=O)c(Nc3ccc(C(F)(F)F)cc3)n2)CCC(N2CC(F)C2)CC1 (centres unmarked)
Given back: 100

Further cases:
Asked: # IC50 lookup, item CC(O)c1ccc(Nc2nn(C3(CC#N)CCN(C(=O)OC(C)(C)C)CC3)cc2C(N)=O)cc1 (centres unmarked)
Given back: 400
